Recorded viability, T/C by entry
Tested on: 996289-038-R-J1-PDC spheroid viability
experiment summary: Anticancer human tumor 996289-038-R-J1-PDC patient-derived colon adenocarcinoma cell line growth inhibition [PI3K]
conditions: second compound 0.01 µM; first compound 0.316 µM; stronger effect = lower value; spheroids with HUVEC and MSC
Number only, in %; omit the unit.

compound | viability, T/C (%)
Cn1ncc(Cl)c1-c1cc(C(=O)NC(CN)Cc2cccc(F)c2)sc1Cl (stereo unspecified) + CC(Nc1ccc2c(c1)OCCn1cc(N3C(=O)OCC3C(F)F)nc1-2)C(N)=O | 83.8

[Q] Quick one: viability, T/C for C[C@@H](NC(=O)c1ncnc(N)c1Cl)c1ncc(C(=O)Nc2cc(C(F)(F)F)c(Cl)cn2)s1 + COc1c(OCCCN2CCOCC2)ccc2c3n(c(=NC(=O)c4cnc(N)nc4)nc12)CCN3 ?
[A] 96.2

[Q] Requested field: viability, T/C. Item: C=CC(=O)N1CCN(c2nc(=O)n(-c3c(C)ccnc3C(C)C)c3nc(-c4c(O)cccc4F)c(F)cc23)C(C)C1 (stereo unspecified) + COc1c(OCCCN2CCOCC2)ccc2c3n(c(=NC(=O)c4cnc(N)nc4)nc12)CCN3
[A] 108

[Q] Given CC1(C)CCC(Nc2ncc(C(F)(F)F)c(-c3c[nH]c4c(P(C)(C)=O)c(C#N)ccc34)n2)CN1 (stereo unspecified) + CC(Nc1ccc2c(c1)OCCn1cc(N3C(=O)OCC3C(F)F)nc1-2)C(N)=O , state its recorded viability, T/C.
[A] 81.7

[Q] Fill blank: measured viability, T/C of the compound CC1(C)CCC(Nc2ncc(C(F)(F)F)c(-c3c[nH]c4c(P(C)(C)=O)c(C#N)ccc34)n2)CN1 (stereo unspecified) + COc1c(OCCCN2CCOCC2)ccc2c3n(c(=NC(=O)c4cnc(N)nc4)nc12)CCN3 is ____.
[A] 75.2

* * *

System: 996289-038-R-J1-PDC spheroid viability
experiment summary: Anticancer human tumor 996289-038-R-J1-PDC cell line growth inhibition [PI3K];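 further: spheroids exposed to compounds for seven days before viability read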;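 on viability, T/C: luminescence used as a proxy for viable cell amount; percent viability relative to DMSO vehicle control as 100%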
conditions: second compound 0.1 µM; first compound 0.1 µM; stronger effect = lower value; spheroids with HUVEC and MSC
Lab note - cut at 80% for viability, T/C: Condition met if strictly below, Condition not met if not.

Past entries and their recorded results:
compound | label value
C[C@@H](NC(=O)c1ncnc(N)c1Cl)c1ncc(C(=O)Nc2cc(C(F)(F)F)c(Cl)cn2)s1 + COc1c(OCCCN2CCOCC2)ccc2c3n(c(=NC(=O)c4cnc(N)nc4)nc12)CCN3 | Condition met
CC1(C)CCC(CN2CCN(c3ccc(C(=O)NS(=O)(=O)c4ccc(NCC5CCOCC5)c([N+](=O)[O-])c4)c(Oc4cnc5[nH]ccc5c4)c3)CC2)=C(c2ccc(Cl)cc2)C1 + Cc1nc(NC(=O)N2CCCC2C(N)=O)sc1-c1ccnc(C(C)(C)C(F)(F)F)c1 | Condition not met
C=CC(=O)N1CCN(c2nc(=O)n(-c3c(C)ccnc3C(C)C)c3nc(-c4c(O)cccc4F)c(F)cc23)C(C)C1 (stereo not given) + CC(Nc1ncnc2nc[nH]c12)c1cc2cccc(Cl)c2c(=O)n1-c1ccccc1 | Condition not met

Now, please, on to the next compound.
[Q] Would you kindly verify if viability, T/C of Cn1ncnc1[C@H]1c2n[nH]c(=O)c3cc(F)cc(c23)N[C@@H]1c1ccc(F)cc1 + Cc1nc(NC(=O)N2CCCC2C(N)=O)sc1-c1ccnc(C(C)(C)C(F)(F)F)c1 is strictly less than 80%?
[A] Condition not met

* * *

Collected viability, T/C values appear next to each entry.
Test system: 996289-038-R-J1-PDC spheroid viability
experiment summary: Anticancer human tumor 996289-038-R-J1-PDC cell line growth inhibition [PI3K];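 further: spheroids exposed to compounds for seven days before viability read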;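 on viability, T/C: luminescence used as a proxy for viable cell amount; percent viability relative to DMSO vehicle control as 100%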
conditions: second compound 0.1 µM; first compound 0.1 µM; stronger effect = lower value; spheroids with HUVEC and MSC
Output spec: scalar in %, unitless text.

The following compounds have reported results that may help.
compound | test value
CC(=O)c1c(C)c2cnc(Nc3ccc(N4CCNCC4)cn3)nc2n(C2CCCC2)c1=O + CC(Nc1ncnc2nc[nH]c12)c1cc2cccc(Cl)c2c(=O)n1-c1ccccc1 | 90.1
CC(=O)c1c(C)c2cnc(Nc3ccc(N4CCNCC4)cn3)nc2n(C2CCCC2)c1=O + CC(Nc1ccc2c(c1)OCCn1cc(N3C(=O)OCC3C(F)F)nc1-2)C(N)=O | 76.5
C=CC(=O)N1CCN(c2nc(=O)n(-c3c(C)ccnc3C(C)C)c3nc(-c4c(O)cccc4F)c(F)cc23)C(C)C1 (configuration not stated) + COc1c(OCCCN2CCOCC2)ccc2c3n(c(=NC(=O)c4cnc(N)nc4)nc12)CCN3 | 52.7
CCCS(=O)(=O)Nc1ccc(F)c(C(=O)c2c[nH]c3ncc(-c4ccc(Cl)cc4)cc23)c1F + COc1c(OCCCN2CCOCC2)ccc2c3n(c(=NC(=O)c4cnc(N)nc4)nc12)CCN3 | 49.7
CC(=O)c1c(C)c2cnc(Nc3ccc(N4CCNCC4)cn3)nc2n(C2CCCC2)c1=O + Cc1nc(NC(=O)N2CCCC2C(N)=O)sc1-c1ccnc(C(C)(C)C(F)(F)F)c1 | 81.6
Cn1ncnc1[C@H]1c2n[nH]c(=O)c3cc(F)cc(c23)N[C@@H]1c1ccc(F)cc1 + COc1c(OCCCN2CCOCC2)ccc2c3n(c(=NC(=O)c4cnc(N)nc4)nc12)CCN3 | 48.6

Okay, next one:
[Q] Test system 996289-038-R-J1-PDC spheroid viability; read-out viability, T/C; what value for C=CC(=O)N1CCN(c2nc(=O)n(-c3c(C)ccnc3C(C)C)c3nc(-c4c(O)cccc4F)c(F)cc23)C(C)C1 (configuration not stated) + Cc1nc(NC(=O)N2CCCC2C(N)=O)sc1-c1ccnc(C(C)(C)C(F)(F)F)c1 ?
[A] 90.4

* * *

System: 996289-038-R-J1-PDC spheroid viability
experiment summary: Anticancer human tumor 996289-038-R-J1-PDC cell line growth inhibition [PI3K];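 further: spheroids exposed to compounds for seven days before viability read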;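 on viability, T/C: luminescence used as a proxy for viable cell amount; percent viability relative to DMSO vehicle control as 100%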
conditions: second compound 0.316 µM; first compound 10 µM; stronger effect = lower value; spheroids with HUVEC and MSC
Excerpt: Combinatorial screen of targeted agents with the PI3K inhibitors inavolisib, alpelisib, duvelisib, and copanlisib in multi-cell type tumor spheroids A high-throughput screen of multi-cell type tumor spheroids was designed to identify active combinations of targeted small molecules and PI3K pathway inhibitors. […] Compounds. […] If the clinical Cmax for an agent had not been determined, the highest concentration tested was 10 microM. […]
viability, T/C overview
# value in %; strip the unit string

compound | system | viability, T/C, %
Cn1nccc1Nc1nccc(-c2ccn(C(CO)c3ccc(Cl)c(F)c3)c(=O)c2)n1 (stereo not given) + Cc1nc(NC(=O)N2CCCC2C(N)=O)sc1-c1ccnc(C(C)(C)C(F)(F)F)c1 | 996289-038-R-J1-PDC spheroid viability | 49.5
C=CC(=O)N1CCN(c2nc(=O)n(-c3c(C)ccnc3C(C)C)c3nc(-c4c(O)cccc4F)c(F)cc23)C(C)C1 (stereo not given) + COc1c(OCCCN2CCOCC2)ccc2c3n(c(=NC(=O)c4cnc(N)nc4)nc12)CCN3 | 996289-038-R-J1-PDC spheroid viability | 40.5
CNC(=O)c1ccc(N2C(=S)N(c3ccc(C#N)c(C(F)(F)F)c3)C(=O)C2(C)C)cc1F + CC(Nc1ccc2c(c1)OCCn1cc(N3C(=O)OCC3C(F)F)nc1-2)C(N)=O | 996289-038-R-J1-PDC spheroid viability | 64
C=CC(=O)N1CCN(c2nc(=O)n(-c3c(C)ccnc3C(C)C)c3nc(-c4c(O)cccc4F)c(F)cc23)C(C)C1 (stereo not given) + CC(Nc1ncnc2nc[nH]c12)c1cc2cccc(Cl)c2c(=O)n1-c1ccccc1 | 996289-038-R-J1-PDC spheroid viability | 105

# ---- query compound ----
[Q] Need viability, T/C, item CCCS(=O)(=O)Nc1ccc(F)c(C(=O)c2c[nH]c3ncc(-c4ccc(Cl)cc4)cc23)c1F + CC(Nc1ncnc2nc[nH]c12)c1cc2cccc(Cl)c2c(=O)n1-c1ccccc1
[A] 23.5

* * *

System: 996289-038-R-J1-PDC spheroid viability
experiment summary: Anticancer human tumor 996289-038-R-J1-PDC cell line growth inhibition [PI3K];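 further: spheroids exposed to compounds for seven days before viability read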
conditions: curve of first compound; second compound 1 µM; spheroids with HUVEC and MSC
endpoint: IC50 (µM)
Express it in µM; write the number only.

Sample answers from the record:
compound | unit descriptor | IC50
CC1(C)CCC(Nc2ncc(C(F)(F)F)c(-c3c[nH]c4c(P(C)(C)=O)c(C#N)ccc34)n2)CN1 (stereo not given) + Cc1nc(NC(=O)N2CCCC2C(N)=O)sc1-c1ccnc(C(C)(C)C(F)(F)F)c1 | µM | 4.92
CC1(C)CCC(CN2CCN(c3ccc(C(=O)NS(=O)(=O)c4ccc(NCC5CCOCC5)c([N+](=O)[O-])c4)c(Oc4cnc5[nH]ccc5c4)c3)CC2)=C(c2ccc(Cl)cc2)C1 + Cc1nc(NC(=O)N2CCCC2C(N)=O)sc1-c1ccnc(C(C)(C)C(F)(F)F)c1 | µM | 6.15

Lab note: next compound to report on.
[Q] Name the reported IC50 value associated with the compound C#Cc1c(F)ccc2cc(O)cc(-c3ncc4c(N5CC6CCC(C5)N6)nc(OCC56CCCN5CC(F)C6)nc4c3F)c12 (stereo not given) + Cc1nc(NC(=O)N2CCCC2C(N)=O)sc1-c1ccnc(C(C)(C)C(F)(F)F)c1
[A] 0.156
